Where these numbers come from: patent US20200347130A1

Each entry below carries its recorded competition (percent).
Target: T1, Biotinylated CD96 antigen (human, UniProt P40200-2 22-503, limits assumed, biotinylated)
T1 sequence (looked up): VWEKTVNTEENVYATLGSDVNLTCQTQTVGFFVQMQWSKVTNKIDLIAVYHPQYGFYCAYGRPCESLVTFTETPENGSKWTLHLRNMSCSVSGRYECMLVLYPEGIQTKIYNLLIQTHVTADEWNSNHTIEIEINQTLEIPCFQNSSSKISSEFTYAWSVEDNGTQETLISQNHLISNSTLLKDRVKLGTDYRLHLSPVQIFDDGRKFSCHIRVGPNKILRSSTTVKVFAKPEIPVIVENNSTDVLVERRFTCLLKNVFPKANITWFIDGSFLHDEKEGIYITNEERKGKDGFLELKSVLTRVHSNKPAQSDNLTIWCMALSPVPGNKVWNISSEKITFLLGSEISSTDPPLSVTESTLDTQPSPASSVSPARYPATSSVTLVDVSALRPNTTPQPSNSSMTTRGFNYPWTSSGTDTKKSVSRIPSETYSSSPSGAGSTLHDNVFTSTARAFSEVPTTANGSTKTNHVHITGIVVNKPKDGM
Test: competition ELISA, antibody B premixed with biotinylated CD96; competitor (coated antibody A): h1722-010
Please give a number only; it is taken to be in %.

INSERT INTO assay_data (binder, assay_metric, measured_result) VALUES
  ('ch1720 (antibody, human IgG4 S228P, kappa, V domains shown, also called chimeric antibody corresponding to m1720) VH: EFQLQQSGPELVKPGASVKISCKASAYSLTDYNMNWVKQSNGKSLEWIGVINPSYGISSYNQKFKGKATLTVDQSSSTAYMHLNSLTSEDSAVYYCARQLRLPGYFDVWGTGTTVTVSS VL: DIKMTQSPSSKNASLGERVTITCKASQDINSYLNWFQQKPGKSPKTLIYRASRLVDGVPSRFSGSGSGQDYSLTISSLEYEDMGIYYCLKYDEFPYTFGGGTKLEIKR', 'competition (percent)', -2.4),
  ('h1718-012 (antibody, V domains shown, Only variable regions are tied to this name) VH: EVQLVQSGAEVKKPGASVKVSCKASGYTITDYNMNWVRQAPGQRLEWIGVINPSYGITDYNQNFKDRVTITVDTSASTAYMELSSLRSEDTAVYYCAIQLRLPGYFDVWGQGTTVTVSS VL: DIQMTQSPSSLSASVGDRVTITCKASQDINQYLNWFQQKPGKAPKTLIYRANRLVDGVPSRFSGSGSGQDYTLTISSLQPEDFATYYCLKYDEFPYTFGGGTKVEIK', 'competition (percent)', -11.1),
  ('h1721-003 (antibody, V domains shown, Only variable regions are tied to this name; also called M721-003) VH: EVTLKESGPVLVKPTETLTLTCTVSGFSLSSYGVNWIRQPPGKALEWLGVIWGDGSTNYHSALISRLTISKDTSKSQVVLTLTNMDPVDTATYYCAKNYFYGSRYGYAMDSWGQGTTVTVSS VL: DIQMTQSPSSLSASVGDRVTITCRASENIYSSLAWYQQKPGKAPKLLIYNAKTLIEGVPSRFSGSGSGTDFTLTISSLQPEDFATYYCQHHYGTPYTFGGGTKVEIK', 'competition (percent)', -0.3);

Entry h1719-014 (antibody, V domains shown, Only variable regions are tied to this name; also called M719-014) VH: EVTLKESGPVLVKPTETLTLTCTVSGFSLSSYGVSWVRQPPGKGLEWLGVIWGDGNTNYHSVLISRLTISKDTSKSQVVLTLTNMDPVDTATYYCAKNYYYGSRYGYPLDYWGQGTTVTVSS VL: DIQMTQSPSSVSASVGDRVTITCKATQDVGTAVAWYQQKPGKSPKLLIYWASTRHTGVPERFSGSGSGTDFTLTISSLQPEDFATYFCQQYGSSVLTFGGGTKVEIK needs its competition (percent) filled in; supply it.
28.6

Give competition (percent) for h1722-010 (antibody, V domains shown, Only variable regions are tied to this name; also called M722-010) VH: EVQLVQSGAEVKKPGSSVKVSCKASGGTFSDYWMHWVRQAPGQGLEWIGMLHPNSGTTSFNEKFKIRVTITADKSTSTAYMELSSLRSEDTAVYYCASDYSGPFAYWGQGTLVTVSS VL: DIQLTQSPSSLSASVGDRVTITCSASSSVNYIHWYQQKPGKAPKRWIFDTSKLASGVPSRFSGSGSGTDYTLTISSLQPEDFATYYCQQWRSNPLTFGQGTKLEIK
100
